The measured values listed here are drawn from PubChem BioAssay (NCI).

Tested on: KM12 colon
Assay Remarks: NCI tumour cell line growth inhibition, 48 h
Property Name: GI50

// known answers, use as guide
| Smiles Notation | Property Name | Measured Result |
| --- | --- | --- |
| CCN(CCCCCCCCCCN1CC(=O)N(CCCCCCCCCCN(CC)Cc2ccccc2OC)CC1=O)Cc1ccccc1OC | GI50 | 1030 nM |
| Cn1cc(C2=C(c3cn(C)c4ccc(N)cc34)C(=O)NC2=O)c2ccccc21 | GI50 | 6400 nM |
| COc1cc(-c2csc(NC(=O)c3cc(C(F)(F)F)cc(C(F)(F)F)c3)n2)cc(OC)c1OC | GI50 | 2860 nM |

Below: the item to evaluate.
-- ask Any idea what GI50 was measured for C[n+]1cc2c3c(ccc2c2ccc4cc5c(cc4c21)OCO5)OCO3 ?
-- reply 455 nM
